# measured.on: human TAS2R1 (Homo sapiens, UniProt Q9NYW7)
# Construct: expressed in transfected cells; host or cells: HEK293T-Gα16gust44
# Sequence (Q9NYW7 whole entry): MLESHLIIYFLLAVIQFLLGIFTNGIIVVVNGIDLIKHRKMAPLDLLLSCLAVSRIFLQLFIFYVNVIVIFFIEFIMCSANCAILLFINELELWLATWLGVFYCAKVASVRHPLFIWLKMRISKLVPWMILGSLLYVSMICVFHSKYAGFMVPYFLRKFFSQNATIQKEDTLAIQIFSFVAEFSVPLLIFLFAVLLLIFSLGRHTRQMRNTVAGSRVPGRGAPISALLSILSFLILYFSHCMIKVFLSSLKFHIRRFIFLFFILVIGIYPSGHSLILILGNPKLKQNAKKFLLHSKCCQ
# test.summary: Calcium imaging assay (FLIPR), HEK293T-Gα16gust44 cells transfected with human TAS2R1
# Assay type: cell-based
# experimental.conditions: Time 88.796 s
Reported RLU values for a set of compounds
measurement.name: RLU (RLU)

>>> recorded_measurement("C[C@H](CCC(=O)O)[C@H]1CC[C@H]2[C@@H]3[C@H](O)C[C@@H]4C[C@H](O)CC[C@]4(C)[C@H]3CC[C@]12C")
790.002
>>> recorded_measurement("C[C@H](CCC(=O)O)[C@H]1CC[C@H]2[C@@H]3CC[C@@H]4C[C@H](O)CC[C@]4(C)[C@H]3CC[C@]12C")
907.185
>>> recorded_measurement("C[C@H](CCC(=O)O)[C@H]1CC[C@H]2[C@@H]3[C@@H](O)C[C@@H]4C[C@H](O)CC[C@]4(C)[C@H]3CC[C@]12C")
536.557
>>> recorded_measurement("C[C@H](CCC(=O)O)[C@H]1CC[C@H]2[C@@H]3[C@H](O)C[C@@H]4C[C@H](O)CC[C@]4(C)[C@H]3C[C@H](O)[C@]12C")
675.614

* * *

# measured.on: human TAS2R1 (Homo sapiens, UniProt Q9NYW7)
# Construct: expressed in transfected cells; host or cells: HEK293T-Gα16gust44
# test.summary: Calcium imaging assay (FLIPR), HEK293T-Gα16gust44 cells transfected with human TAS2R1
# Assay type: cell-based
# experimental.conditions: Time 191.547 s
measurement.name: RLU (RLU)

>>> recorded_measurement("C[C@H](CCC(=O)O)[C@H]1CC[C@H]2[C@@H]3CC[C@@H]4C[C@H](O)CC[C@]4(C)[C@H]3C[C@H](O)[C@]12C [Deoxycholic Acid, deoxycholic acid]")
247.046
>>> recorded_measurement("C[C@H](CCC(=O)NCCS(=O)(=O)O)[C@H]1CC[C@H]2[C@@H]3CC[C@@H]4C[C@H](O)CC[C@]4(C)[C@H]3CC[C@]12C [Taurolithocholic Acid, taurolithocholic acid]")
24.299
>>> recorded_measurement("C[C@H](CCC(=O)NCCS(=O)(=O)O)[C@H]1CC[C@H]2[C@@H]3[C@H](O)C[C@@H]4C[C@H](O)CC[C@]4(C)[C@H]3C[C@H](O)[C@]12C [Taurocholic Acid, taurocholic acid]")
70.5412
>>> recorded_measurement("C[C@H](CCC(=O)NCC(=O)O)[C@H]1CC[C@H]2[C@@H]3[C@H](O)C[C@@H]4C[C@H](O)CC[C@]4(C)[C@H]3C[C@H](O)[C@]12C [Glycocholic Acid, glycocholic acid]")
176.088

* * *

# measured.on: human TAS2R1 (Homo sapiens)
# Construct: expressed in transfected cells; host or cells: HEK293T-Gα16gust44
# test.summary: Calcium imaging assay (FLIPR), HEK293T-Gα16gust44 cells transfected with human TAS2R1
# Assay type: cell-based
# experimental.conditions: Time 173.562 s
measurement.name: RLU

>>> recorded_measurement("C[C@H](CCC(=O)O)[C@H]1CC[C@H]2[C@@H]3CC[C@@H]4C[C@H](O)CC[C@]4(C)[C@H]3CC[C@]12C")
"588.477 RLU"
>>> recorded_measurement("C[C@H](CCC(=O)O)[C@H]1CC[C@H]2[C@@H]3[C@H](O)C[C@@H]4C[C@H](O)CC[C@]4(C)[C@H]3C[C@H](O)[C@]12C")
"182.798 RLU"
>>> recorded_measurement("C[C@H](CCC(=O)O)[C@H]1CC[C@H]2[C@@H]3[C@@H](O)C[C@@H]4C[C@H](O)CC[C@]4(C)[C@H]3CC[C@]12C")
"124.68 RLU"
>>> recorded_measurement("C[C@H](CCC(=O)O)[C@H]1CC[C@H]2[C@@H]3[C@H](O)C[C@@H]4C[C@H](O)CC[C@]4(C)[C@H]3CC[C@]12C")
"376.724 RLU"

* * *

# measured.on: mouse Tas2r144 (Mus musculus, UniProt Q7TQB8)
# Construct: expressed in transfected cells; host or cells: HEK293T-Gα16gust44
# Sequence (Q7TQB8 whole entry): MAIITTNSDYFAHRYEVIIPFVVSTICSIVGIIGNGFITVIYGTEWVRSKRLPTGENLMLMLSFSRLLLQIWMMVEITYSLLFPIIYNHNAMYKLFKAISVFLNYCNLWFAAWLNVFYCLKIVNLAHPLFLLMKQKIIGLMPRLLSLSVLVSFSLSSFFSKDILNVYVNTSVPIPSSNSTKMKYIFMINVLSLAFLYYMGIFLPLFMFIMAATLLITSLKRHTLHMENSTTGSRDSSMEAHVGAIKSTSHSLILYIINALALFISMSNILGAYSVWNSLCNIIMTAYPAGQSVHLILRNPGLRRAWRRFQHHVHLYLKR
# test.summary: Calcium imaging assay (FLIPR), HEK293T-Gα16gust44 cells transfected with mouse Tas2r144
# Type: cell-based
# experimental.conditions: Time 70.781 s
measurement.name: RLU

>>> recorded_measurement("C[C@H](CCC(=O)NCCS(=O)(=O)O)[C@H]1CC[C@H]2[C@@H]3[C@H](O)C[C@@H]4C[C@H](O)CC[C@]4(C)[C@H]3C[C@H](O)[C@]12C")
"560.61 RLU"
>>> recorded_measurement("C[C@H](CCC(=O)NCCS(=O)(=O)O)[C@H]1CC[C@H]2[C@@H]3CC[C@@H]4C[C@H](O)CC[C@]4(C)[C@H]3CC[C@]12C")
"448.262 RLU"
>>> recorded_measurement("C[C@H](CCC(=O)O)[C@H]1CC[C@H]2[C@@H]3[C@H](O)C[C@@H]4C[C@H](O)CC[C@]4(C)[C@H]3C[C@H](O)[C@]12C")
"644.081 RLU"
>>> recorded_measurement("C[C@H](CCC(=O)NCC(=O)O)[C@H]1CC[C@H]2[C@@H]3[C@H](O)C[C@@H]4C[C@H](O)CC[C@]4(C)[C@H]3C[C@H](O)[C@]12C")
"415.079 RLU"

* * *

# measured.on: human TAS2R14 (Homo sapiens)
# Construct: expressed in transfected cells; host or cells: HEK293T-Gα16gust44
# Sequence (Q9NYV8 1-317): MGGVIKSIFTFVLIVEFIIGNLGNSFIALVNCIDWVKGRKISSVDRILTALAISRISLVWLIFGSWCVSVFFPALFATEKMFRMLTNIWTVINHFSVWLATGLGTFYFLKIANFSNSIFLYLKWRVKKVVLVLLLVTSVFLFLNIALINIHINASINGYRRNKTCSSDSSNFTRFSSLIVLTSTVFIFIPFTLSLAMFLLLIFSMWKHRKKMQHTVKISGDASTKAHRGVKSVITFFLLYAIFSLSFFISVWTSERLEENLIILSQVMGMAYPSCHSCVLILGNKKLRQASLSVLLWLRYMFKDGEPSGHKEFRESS
# test.summary: Calcium imaging assay (FLIPR), HEK293T-Gα16gust44 cells transfected with human TAS2R14
# Assay type: cell-based
# experimental.conditions: TAS2R14 trace; Time (s) 173.578 (Taurocholic Acid 173.563, Chenodeoxycholic Acid 173.546)
Please respond with criterion met when measured RLU is strictly beneath 700 RLU, and with criterion not met in all other cases.

>>> label("C[C@H](CCC(=O)NCC(=O)O)[C@H]1CC[C@H]2[C@@H]3[C@H](O)C[C@@H]4C[C@H](O)CC[C@]4(C)[C@H]3C[C@H](O)[C@]12C")
"criterion not met"
>>> label("C[C@H](CCC(=O)O)[C@H]1CC[C@H]2[C@@H]3[C@H](O)C[C@@H]4C[C@H](O)CC[C@]4(C)[C@H]3CC[C@]12C")
"criterion met"
>>> label("C[C@H](CCC(=O)NCCS(=O)(=O)O)[C@H]1CC[C@H]2[C@@H]3[C@H](O)C[C@@H]4C[C@H](O)CC[C@]4(C)[C@H]3C[C@H](O)[C@]12C")
"criterion not met"
>>> label("C[C@H](CCC(=O)O)[C@H]1CC[C@H]2[C@@H]3[C@H](O)C[C@@H]4C[C@H](O)CC[C@]4(C)[C@H]3C[C@H](O)[C@]12C")
"criterion not met"
>>> label("C[C@H](CCC(=O)NCCS(=O)(=O)O)[C@H]1CC[C@H]2[C@@H]3CC[C@@H]4C[C@H](O)CC[C@]4(C)[C@H]3CC[C@]12C")
"criterion met"

* * *

Reported RLU, fluorescence trace values for a set of compounds
# measured.on: human TAS2R4 (Homo sapiens, UniProt Q9NYW5)
# Construct: expressed in transfected cells; host or cells: HEK293T-Gα16gust44
# Sequence (Q9NYW5 whole entry): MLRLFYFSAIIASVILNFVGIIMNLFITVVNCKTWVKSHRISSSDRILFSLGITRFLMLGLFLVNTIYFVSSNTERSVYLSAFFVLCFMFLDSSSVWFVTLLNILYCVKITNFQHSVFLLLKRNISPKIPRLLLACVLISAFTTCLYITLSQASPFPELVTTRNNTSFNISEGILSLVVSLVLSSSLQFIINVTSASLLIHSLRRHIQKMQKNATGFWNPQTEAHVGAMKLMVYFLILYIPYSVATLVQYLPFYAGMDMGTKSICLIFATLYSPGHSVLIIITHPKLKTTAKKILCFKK
# test.summary: Calcium imaging assay (FLIPR), HEK293T-Gα16gust44 cells transfected with human TAS2R4; note: test concentration or dose not given here
# Type: cell-based
# experimental.conditions: Time (s) 143.547
measurement.name: RLU, fluorescence trace (RLU)

>>> recorded_measurement("C[C@H](CCC(=O)NCC(=O)O)[C@H]1CC[C@H]2[C@@H]3[C@H](O)C[C@@H]4C[C@H](O)CC[C@]4(C)[C@H]3C[C@H](O)[C@]12C")
379.834
>>> recorded_measurement("C[C@H](CCC(=O)NCCS(=O)(=O)O)[C@H]1CC[C@H]2[C@@H]3CC[C@@H]4C[C@H](O)CC[C@]4(C)[C@H]3CC[C@]12C")
215.734
>>> recorded_measurement("C[C@H](CCC(=O)O)[C@H]1CC[C@H]2[C@@H]3[C@H](O)C[C@@H]4C[C@H](O)CC[C@]4(C)[C@H]3C[C@H](O)[C@]12C")
408.618
>>> recorded_measurement("C[C@H](CCC(=O)NCCS(=O)(=O)O)[C@H]1CC[C@H]2[C@@H]3[C@H](O)C[C@@H]4C[C@H](O)CC[C@]4(C)[C@H]3C[C@H](O)[C@]12C")
525.352
>>> recorded_measurement("C[C@H](CCC(=O)O)[C@H]1CC[C@H]2[C@@H]3[C@@H](O)C[C@@H]4C[C@H](O)CC[C@]4(C)[C@H]3CC[C@]12C")
195.123
>>> recorded_measurement("C[C@H](CCC(=O)O)[C@H]1CC[C@H]2[C@@H]3CC[C@@H]4C[C@H](O)CC[C@]4(C)[C@H]3C[C@H](O)[C@]12C")
333.389
